assayComment: NCI Yeast Anticancer Drug Screen. Data for the rad50 strain (AID 155);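 further: 0% = growth of vehicle-only cultures of the same strain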
testSettings: S. cerevisiae rad50 strain growth inhibition; at 50.0 µM
This is part of a sample that, as a whole, favours compounds with a hit. Of some 79,000 tested, about 15% had one in any assay. Calls of active or inactive are those of the source. No stated cut-off is given here; in the data, active means growth inhibition above about 70%; inactive means the rest.
In this exercise, the only acceptable responses are label 1 for active, label 0 for inactive

Consider the worked cases shown below.
CCCn1c(=O)c2ccccc2[n+]2c(-c3ccc([N+](=O)[O-])cc3)csc12: label 1
COC(=O)c1c(C)cccc1C(=O)c1c(C)cc(C)cc1C: label 1
NCC(O)CSc1ccc(Cl)c(Cl)c1 (stereo not given): label 0

Q) Recorded test call requested for CC(c1ccccc1)c1cc(C(C)(C)C)ccc1O (stereo not given)
A) label 1

Q) Recorded test call requested for CC1(CO)CCCC2(C)C1CCC1CC3C=CC12C1C(=O)OC(=O)C31 (stereo not given)
A) label 1

Q) Recorded test call requested for COC(=O)/C=C(\C)Nc1ccc(Cc2ccc(Br)cc2)cc1
A) label 1

Q) Recorded test call requested for O=[N+]([O-])/C(C(Cl)=C(Cl)Cl)=C(/Cl)SCc1ccccc1
A) label 1

Q) Recorded test call requested for CCOC(=O)C1=C(N)N(S(=O)(=O)c2ccc(C)cc2)CCC(C(=O)OC)=C1
A) label 0

Q) Recorded test call requested for O=[N+]([O-])c1cccc(S(=O)(=O)Nc2cccc3ccccc23)c1
A) label 1

Q) Recorded test call requested for COc1ccc(CSC2=C(C#N)C(=O)NC3(CCCCC3)S2)cc1
A) label 0

Q) Recorded test call requested for CCOC(=O)CSC(=S)Nc1ccc(Cl)cc1
A) label 1

Q) Recorded test call requested for CN(C)CC(O)c1cc(-c2ccc(Cl)cc2)nc2c(Cl)cc(Cl)cc12 (stereo not given)
A) label 1

Q) Recorded test call requested for COc1cc(OC)c(/C=C\c2ccnc3ccccc23)c(OC)c1
A) label 1

Q) Recorded test call requested for Cc1ccc(NC(=O)CCCC(=O)C(C#N)c2ccccc2C)cc1C (stereo not given)
A) label 0

Q) Recorded test call requested for O=C1/C(=C/c2cccc(F)c2)CCCc2ccccc21
A) label 1

Q) Recorded test call requested for CC(C)SC(=S)Nc1ccc(Cl)c([N+](=O)[O-])c1
A) label 1

----------
assayComment: NCI Yeast Anticancer Drug Screen. Data for the bub3 strain (AID 167)
testSettings: S. cerevisiae bub3 mutant strain, at 5.0 µM (retest, dose inferred, filed as 0.5), hits give high values
About 79,000 compounds went through this panel and 15% of them were active in at least one assay; those are over-represented in the sample as a whole.
measurementName: growth inhibition (%)
The response must be a number in % with no trailing unit.

Q) Give growth inhibition for the following molecule: COC(=O)/C(=C\c1cn(C(C)=O)c2ccccc12)P(=O)(OC)OC
A) -24

Q) Give growth inhibition for the following molecule: COc1c([N+](=O)[O-])cc(-c2ccccc2)cc1[N+](=O)[O-]
A) 5

Q) Give growth inhibition for the following molecule: Nc1ccc(C(=O)NN2C(=O)C(Cl)C2c2cc(Br)cc(Br)c2O)cc1 (stereo unspecified)
A) 10

Q) Give growth inhibition for the following molecule: N#Cc1c([N+](=O)[O-])cc(C(F)(F)F)cc1[N+](=O)[O-]
A) 92

Q) Give growth inhibition for the following molecule: CS(=O)(=O)C(=Cc1ccccc1Cl)S(C)(=O)=O
A) 0

Q) Give growth inhibition for the following molecule: c1ccc(OCCCOc2ccccc2)cc1
A) 7

----------
assayComment: NCI Yeast Anticancer Drug Screen. Data for the mec2-1 strain (AID 157)
testSettings: S. cerevisiae mec2-1 strain, at 5.0 µM (retest, dose inferred, filed as 0.5)
This is part of a sample that, as a whole, favours compounds with a hit. Of some 79,000 tested, about 15% had one in any assay. Active and inactive are the calls of the source. Rule as the data show it: active = growth inhibition above about 70%; inactive = the rest.
In this exercise, the only acceptable responses are Yes for active, No for inactive

O=[N+]([O-])c1ccc(N=C(Cl)C(Cl)(c2ccccc2)c2ccccc2)cc1: No
O=C1C(Br)=C(Br)C(=O)c2ccccc21: Yes
CC(=O)Oc1ccc(C23CC4CC(CC(C4)C2)C3)cc1: No
CCCCN(CCCC)CCCCCCNc1cc(OC)cc2cccnc12: No
COc1c(O)ccc2c1CN1CCc3cc4c(cc3C1C2)OCO4 (stereo unspecified): No
Ic1[nH]c(I)c(I)c1I: No
C1=NC(N(Cc2ccccc2)Cc2ccccc2)N(Cc2ccccc2)N1 (stereo unspecified): No
Oc1cc(-[n+]2ccc3ccccc3c2)c(O)c2ccccc12: No

Q) Recorded test call requested for C[n+]1c(-c2ccc(/C=N/NC(=O)c3ccc(C(=O)N/N=C/c4ccc(-c5cn6ccccc6[n+]5C)cc4)nc3)cc2)cn2ccccc21
A) No

Q) Recorded test call requested for O=C(O)C/C(=C\c1ccco1)C(=O)O
A) No

Q) Recorded test call requested for c1c2c(cc(-n3nnc4c3CCCCCC4)c1-n1nnc3c1CCCCCC3)CCCCCC2
A) No

----------
assayComment: NCI Yeast Anticancer Drug Screen. Data for the sgs1 mgt1 strain (AID 161);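 further: 0% = growth of cultures given vehicle only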
testSettings: S. cerevisiae sgs1 mgt1 strain, at 50.0 µM
Compounds without any hit were thinned out: in the full panel of roughly 79,000, 15% have a hit. Active and inactive are the calls of the source. No stated cut-off is given here; in the data, active means growth inhibition above about 70%; inactive means the rest.
In this exercise, the only acceptable responses are True for active, False for inactive

O=S(=O)(Nc1ccccc1C(F)(F)F)c1ccc(F)cc1: False
C#CCCCCCOC(=O)c1cc([N+](=O)[O-])cc([N+](=O)[O-])c1: True
Cc1cc(=O)n(-c2cc3cccccc-3n2)[nH]1: True
C=C(C)/C([O-])=N/[N+](C)(C)CC(O)CCCCCCCCCCCC (centres undefined): True
CN1C(=O)C23SSC1(C)C(=O)N2c1ccccc1C3(C)C (centres undefined): True
COc1cccc(CCCNC(=O)Cc2ccccc2CO)c1: False

Q) Recorded test call requested for CN(C)CCCSc1c2ccccc2nc2cccc([N+](=O)[O-])c12
A) False

Q) Recorded test call requested for N=C(N)Cc1ccc(NC(=O)c2ccc(C(=O)Nc3ccc(CC(=N)N)cc3)cc2)cc1
A) True

Q) Recorded test call requested for CCOC1=C(c2ccccc2)Sc2ccc(C)cc2C1c1ccc(C)cc1 (centres undefined)
A) True

----------
assayComment: NCI Yeast Anticancer Drug Screen. Data for the rad50 strain (AID 155);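 further: 0% = growth of vehicle-only cultures of the same strain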
testSettings: S. cerevisiae rad50 strain growth inhibition; at 50.0 µM; hits give high values
About 79,000 compounds went through this panel and 15% of them were active in at least one assay; those are over-represented in the sample as a whole.
measurementName: growth inhibition (%)
The response must be a number in % with no trailing unit.

O=C(NCCCN1CCN(CCCNC(=O)c2cc(-c3ccccc3)nc3ccccc23)CC1)c1cc(-c2ccccc2)nc2ccccc12: 84.6

Q) Give growth inhibition for the following molecule: Cc1cc(C[P+](c2ccccc2)(c2ccccc2)c2ccccc2)c(C)cc1C[P+](c1ccccc1)(c1ccccc1)c1ccccc1
A) 95.1

----------
assayComment: NCI Yeast Anticancer Drug Screen. Data for the sgs1 mgt1 strain (AID 161);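 further: 0% = growth of cultures given vehicle only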
testSettings: S. cerevisiae sgs1 mgt1 strain, at 5.0 µM (retest, dose inferred, filed as 0.5), hits give high values
This is part of a sample that, as a whole, favours compounds with a hit. Of some 79,000 tested, about 15% had one in any assay.
Item-by-item account of growth inhibition
The response must be a number in % with no trailing unit.

Example cases with answers are listed next.
CC1=C(C(=O)Nc2cccc3ccccc23)C(c2cccc([N+](=O)[O-])c2)C(C(=O)Nc2cccc3ccccc23)=C(C)N1: 7
COc1ccc2nc3cccc([N+](=O)[O-])c3c(NCCO)c2c1: 82
Nc1c(Cl)nc(C(F)(F)F)nc1NCc1ccccc1: 97
CN(C)c1ccc(/C=C/c2nc3ccccc3[nH]2)cc1: -3

Q) Give growth inhibition for the following molecule: C/C(=C\c1ccccc1Cl)c1ccccn1
A) 6

Q) Give growth inhibition for the following molecule: Cn1c(Sc2ccc(-c3cccnc3)n2C)ccc1-c1cccnc1
A) -7

Q) Give growth inhibition for the following molecule: CC1=Cc2cc3[n-]c(cc4nc(cc5[n-]c(cc1n2)cc5C)C(C)=C4CCC(=O)O)c(CCC(=O)O)c3C.[Pd+2]
A) 0

Q) Give growth inhibition for the following molecule: Oc1ccc(C(O)(c2ccccc2)c2ccccc2)c2ccccc12
A) 59

----------
Item-by-item account of growth inhibition
assayComment: NCI Yeast Anticancer Drug Screen. Data for the bub3 strain (AID 167)
testSettings: S. cerevisiae bub3 mutant strain, at 5.0 µM (retest, dose inferred, filed as 0.5), hits give high values
This is part of a sample that, as a whole, favours compounds with a hit. Of some 79,000 tested, about 15% had one in any assay. Active and inactive are the calls of the source. Rule as the data show it: active = growth inhibition above about 70%; inactive = the rest.

Example cases with answers are listed next.
CCC(N)C(O)C(C)C (configuration not stated): 3% (inactive)
CCN(CC)CCNC(=O)c1ccc2c(c1O)C(=O)c1ccccc1C2=O: -3% (inactive)

Q) Give growth inhibition for the following compound: CCc1ccccc1NC1=C(Cl)C(=O)c2ccccc2C1=O
A) 99% (active)

Q) Give growth inhibition for the following compound: COc1ccc(C(c2ccccc2C(=O)O)c2ccc(OC)c3ccccc23)c2ccccc12
A) 94% (active)

Q) Give growth inhibition for the following compound: CCOC(=O)c1cccc(C)c1C(=O)c1ccc(C)cc1C
A) -4% (inactive)

Q) Give growth inhibition for the following compound: COc1cc(/C=N/NC(=S)Nc2ccccc2)ccc1O
A) -11% (inactive)

Q) Give growth inhibition for the following compound: CN(C)CCC(=O)c1ccco1
A) -3% (inactive)

Q) Give growth inhibition for the following compound: Cc1ccccc1P(=O)(c1ccccc1C)c1ccccc1C
A) 24% (inactive)

Q) Give growth inhibition for the following compound: O=P(O)(CN1CCN(CP(=O)(O)c2ccccc2)CCN(CP(=O)(O)c2ccccc2)CC1)c1ccccc1
A) 30% (inactive)

Q) Give growth inhibition for the following compound: CC1=C/C(=C(/c2ccc(O)c(C)c2)c2ccccc2C(=O)O)C=CC1=O
A) -8% (inactive)

Q) Give growth inhibition for the following compound: CCOC(=S)SSC(=S)NCCNC(=S)SSC(=S)OCC
A) 4% (inactive)

Q) Give growth inhibition for the following compound: COc1cc2c(cc1O)C(O)CCCC2 (configuration not stated)
A) -64% (inactive)

Data origin: PubChem BioAssay (NCI)
